Assay: qHTS for Inhibitors of TGF-b: Cytotox Counterscreen; further: potency means the concentration at half of the fitted maximal effect
Conditions: HepG2 CAGA-GFP viability, ATP luminescence, 18 h; series mostly up to 46.1 µM
Among all 410,000 compounds or so, about 3,100 (0.76%) were called active. The sample holds actives, similar compounds and a random draw of the others, so the mix is not that of the screen.
metric name: Potency

INSERT INTO assay_data (compound, measurement) VALUES
  ('CN(C)c1ccc(C=Nc2ccc(/C=C/c3ccnc4ccccc34)cc2)cc1', 'inactive'),
  ('COc1ccc(C(=O)NC(Cc2ccc(OC(=O)c3ccc(OC)cc3)cc2)C(=O)O)cc1 (stereo not given)', 'inactive'),
  ('CCOc1ccc(C(=O)N2CCN(CCc3ccccn3)CC2)cc1', 'inactive'),
  ('c1ccc2[nH]c(-c3nc4ccccc4[nH]3)nc2c1', '10 µM (active)'),
  ('Cc1ccc2c(=O)c(C(=O)c3ccc(Cl)cc3)cn(CC(=O)NC3CCCCC3)c2n1', 'inactive'),
  ('COc1ccc(CC(N)c2csc(NC(=O)NC(c3ccccc3)c3ccccc3)n2)cc1 (stereo not given)', '12.6 µM (active)'),
  ('COc1ccc(CNC(=O)C(Cc2ccccc2)n2cccc2)cc1 (stereo not given)', 'inactive'),
  ('Cc1cccc(NS(=O)(=O)c2ccc(-c3cnc(C4CC4)o3)cc2)c1', 'inactive'),
  ('COc1ccccc1N1CCN(c2ncnc3onc(-c4cccc(Cl)c4)c23)CC1', 'inactive'),
  ('CC(C)c1nnc(NC(=O)COC(=O)/C=C/c2ccc([N+](=O)[O-])cc2)s1', 'inactive');
